# credit: the supplement of paper PMC10567573

The variants listed here are annotated with their protein stability index.
B1: ZNF193 (parent)
chain: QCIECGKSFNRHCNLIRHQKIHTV

variants of: B1; experiment: protein stability index of a GFP-peptide fusion (GPS, HEK-293T) (PSI 1-6); higher = more stable; conditions: c terminus: a fixed tail appended;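 note: lentivirally expressed fusions sorted by FACS into six bins by GFP to DsRed ratio, PSI derived from sequencing read proportions per bin multiplied by bin number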
Please reply with the value in numeric form only.

mutationlabel=F9D numericreadout=3.09

Could you share which protein stability index value was measured for `K7R` ?
3.05

Could you share which protein stability index value was measured for `H12V` ?
3.76

Could you share which protein stability index value was measured for `I21F` ?
3.15
